Data provenance: patent US20240368113A1

Tested on: MV-4-11 cells
MEASUREMENT DESCRIPTION: Inhibition of tumor cell proliferation (CellTiter-Glo)
Format: cell-based
STUDY CONDITIONS: Homo sapiens, MV4-11; MV-4-11 cells, 72 h, CellTiter-Glo; read-out: IC50 of inhibitory activity of tumor cell proliferation
Procedure: MV-4-11 cells were diluted with medium (RPM1640+10% FBS+1% PS) and plated at 4000 cells/well in a white-walled clear-bottom 96-well plate. MV-4-11 cells were plated and incubated in a 5% CO2, 37° C. incubator for 2 hours. […] After 10 min of incubation at room temperature, the luminescence was measured by a microplate reader, and the cell-free wells were used as the background wells. […]
EXPERIMENTAL READOUT: IC50

CC(C)(C)OC(=O)N1CCCCC1C#CC(=O)NCc1ccc2c(c1)CN(C1CCC(=O)NC1=O)C2=O (centres unmarked): < 1 nM
Cc1ccc(C#CC(=O)NCc2ccc3c(c2)CN(C2CCC(=O)NC2=O)C3=O)nc1 (centres unmarked): 1 to 10 nM
O=C(C#Cc1ccc2[nH]ccc2c1)NCc1ccc2c(c1)CN(C1CCC(=O)NC1=O)C2=O (centres unmarked): 1 to 10 nM
O=C(C#Cc1nc2ccccc2s1)NCc1ccc2c(c1)CN(C1CCC(=O)NC1=O)C2=O (centres unmarked): 10 to 100 nM
O=C1CCC(N2Cc3cc(CNC(=O)/C(F)=C/c4cccc(F)c4)ccc3C2=O)C(=O)N1 (centres unmarked): > 100 nM
O=C(C#Cc1ccc(Cl)cn1)NCc1ccc2c(c1)CN(C1CCC(=O)NC1=O)C2=O (centres unmarked): 1 to 10 nM

Give its IC50 value. Item: O=C(C#Cc1cccs1)NCc1ccc2c(c1)CN(C1CCC(=O)NC1=O)C2=O (centres unmarked)
< 1 nM

Give its IC50 value. Item: O=C(C#Cc1cccc(Cl)n1)NCc1ccc2c(c1)CN(C1CCC(=O)NC1=O)C2=O (centres unmarked)
1 to 10 nM

----------
Tested on: MV-4-11 cells
MEASUREMENT DESCRIPTION: Inhibition of tumor cell proliferation (CellTiter-Glo)
Type: cell-based
STUDY CONDITIONS: Homo sapiens, MV4-11; MV-4-11 cells, 72 h, CellTiter-Glo; read-out: IC50 of inhibitory activity of tumor cell proliferation
pIC50: −log10 of the molar value.
EXPERIMENTAL READOUT: pIC50

O=C(C#Cc1c(O)cccc1Cl)NCc1ccc2c(c1)CN(C1CCC(=O)NC1=O)C2=O (stereo not shown): 8.00 to 9.00
CC(C)(C)C(=O)OCOC(=O)c1cccc(C#CC(=O)NCc2ccc3c(c2)CN(C2CCC(=O)NC2=O)C3=O)c1 (stereo not shown): < 7.00
Nc1cc(C#CC(=O)NCc2ccc3c(c2)CN(C2CCC(=O)NC2=O)C3=O)ccc1F (stereo not shown): > 9.00
Nc1ccc(C#CC(=O)NCc2ccc3c(c2)CN(C2CCC(=O)NC2=O)C3=O)c(F)c1 (stereo not shown): 8.00 to 9.00
CCCC(=O)OCOC(=O)c1cccc(C#CC(=O)NCc2ccc3c(c2)CN(C2CCC(=O)NC2=O)C3=O)c1 (stereo not shown): < 7.00

Give its pIC50 value. Item: Cc1ccc(C#CC(=O)NCc2ccc3c(c2)CN(C2CCC(=O)NC2=O)C3=O)cn1 (stereo not shown)
7.00 to 8.00

Give its pIC50 value. Item: O=C(C#Cc1cc(Cl)c(O)c(Cl)c1)NCc1ccc2c(c1)CN(C1CCC(=O)NC1=O)C2=O (stereo not shown)
< 7.00
